experiment: AUC in rat at 5 mg/kg, po
Format: ADME, organism-based
Design: dose 5 mg/kg
assayContext: in vivo
attributeMeasured: AUC (ng·h/mL)

molecularString | AUC / ng·h/mL
CC(C)(O)C(=O)Nc1sc(S(=O)(=O)c2ccc(F)cc2)cc1C(N)=O | 5600

I. NC(=O)c1cc(S(=O)(=O)c2ccc(F)cc2)sc1NC(=O)C1(O)CC1
II. COc1ccc(S(=O)(=O)c2cc(C(N)=O)c(NC(=O)C(C)(C)O)s2)cc1
Asked: Determine, for I and II , which has the greater value of AUC. // output: label of the selected item
Given back: II

Value source: ChEMBL document CHEMBL4765492
